Reported IC50 values follow for various molecules
Molecular target: BTK (Homo sapiens (Human))
Test: In Vitro PD Assay in Human Whole Blood (pBTK assay)
Type: cell-based
Conditions: human heparinized whole blood, 37° C. for 30 min, total BTK capture and phosphotyrosine detection (ECL)
Measurement Name: IC50

[
  {
    "Molecule": "Cn1cc(Nc2ncnc(-c3ccc(CNC(=O)c4nc(C(C)(C)C)no4)c(Cl)c3F)n2)cn1",
    "Measurement Name": "IC50",
    "Test Result": "< 100 nM"
  },
  {
    "Molecule": "Cn1ccc(Nc2ncnc(-c3ccc(CNC(=O)c4nc(C(C)(C)C)no4)c(CC(F)F)c3)n2)n1",
    "Measurement Name": "IC50",
    "Test Result": "500 to 10000 nM"
  },
  {
    "Molecule": "Cn1ccc(Nc2ncnc(-c3ccc4c(c3)CN(CC(F)(F)F)CC[C@H]4NC(=O)c3coc(C(C)(C)C)n3)n2)n1",
    "Measurement Name": "IC50",
    "Test Result": "500 to 10000 nM"
  },
  {
    "Molecule": "Cn1ccc(Nc2ncnc(-c3ccc4c(c3)CN(C3COC3)CC[C@H]4NC(=O)c3coc(C(C)(C)C)n3)n2)n1",
    "Measurement Name": "IC50",
    "Test Result": "100 to 500 nM"
  },
  {
    "Molecule": "Cn1ccc(Nc2ncnc(-c3ccc(CNC(=O)c4nc(C(C)(C)C)no4)c(Cl)c3)n2)n1",
    "Measurement Name": "IC50",
    "Test Result": "500 to 10000 nM"
  },
  {
    "Molecule": "Cn1cc(Nc2ncnc(-c3cc4c(cc3F)[C@H](NC(=O)c3noc(C(C)(C)C)n3)CCCC4)n2)cn1",
    "Measurement Name": "IC50",
    "Test Result": "< 100 nM"
  },
  {
    "Molecule": "Cn1ccc(Nc2ncnc(-c3ccc4c(c3F)CCCC[C@H]4NC(=O)c3coc(C(C)(C)C)n3)n2)n1",
    "Measurement Name": "IC50",
    "Test Result": "500 to 10000 nM"
  },
  {
    "Molecule": "Cn1ccc(Nc2ncnc(-c3ccc4c(c3F)CCCC[C@H]4NC(=O)c3noc(C(C)(C)C)n3)n2)n1",
    "Measurement Name": "IC50",
    "Test Result": "100 to 500 nM"
  },
  {
    "Molecule": "Cc1c(CNC(=O)c2cn(C(C)(C)C)nn2)ccc(-c2ncnc(Nc3cnn(C)c3)n2)c1F",
    "Measurement Name": "IC50",
    "Test Result": "100 to 500 nM"
  },
  {
    "Molecule": "Cn1ccc(Nc2ncnc(-c3ccc4c(c3)CN(C3COC3)CC[C@H]4NC(=O)c3nc(C(C)(C)C)no3)n2)n1",
    "Measurement Name": "IC50",
    "Test Result": "100 to 500 nM"
  },
  {
    "Molecule": "Cn1ccc(Nc2ncnc(-c3ccc(CNC(=O)c4noc(C(C)(C)CF)n4)c(C4CC4)c3)n2)n1",
    "Measurement Name": "IC50",
    "Test Result": "100 to 500 nM"
  },
  {
    "Molecule": "Cc1cc(-c2ncnc(Nc3cnn(C)c3)n2)c(F)cc1CNC(=O)c1cc(C(C)(C)C)no1",
    "Measurement Name": "IC50",
    "Test Result": "500 to 10000 nM"
  },
  {
    "Molecule": "Cc1c([C@@H](C)NC(=O)c2noc(C(C)(C)C)n2)ccc(-c2ncnc(Nc3cnn(C)c3)n2)c1Cl",
    "Measurement Name": "IC50",
    "Test Result": "< 100 nM"
  },
  {
    "Molecule": "Cc1cc(-c2ncnc(Nc3cnn(C)c3)n2)ccc1CNC(=O)c1noc(C2[C@@H](C)[C@H]2C)n1 (stereo partly drawn)",
    "Measurement Name": "IC50",
    "Test Result": "500 to 10000 nM"
  },
  {
    "Molecule": "Cn1cc(Nc2ncnc(-c3ccc(CNC(=O)c4noc(C(C)(C)C)n4)c(C(F)(F)F)c3)n2)cn1",
    "Measurement Name": "IC50",
    "Test Result": "100 to 500 nM"
  }
]

---

Molecular target: UniProt Q06187
Assay: In Vitro BTK Kinase Assay: BTK-POLYGAT-LS ASSAY
Format: biochemical
Details: fluorescein-labeled polyGAT peptide 100 nM, BTK enzyme 0.25 nM, 30 minutes, TRF
pIC50: −log10 of the molar value.
Measured pIC50 accompanies every entry in the list below.

[
  {
    "Smiles Text": "Cc1c([C@@H](C)NC(=O)c2nc(C(C)(C)C)no2)ccc(-c2ncnc(Nc3cnn(C)c3)n2)c1F",
    "pIC50": "> 9.00"
  },
  {
    "Smiles Text": "Cc1c(CNC(=O)c2ncc(C(C)(C)C)o2)ccc(-c2ncnc(Nc3cnn(C)c3)n2)c1F",
    "pIC50": "> 9.00"
  },
  {
    "Smiles Text": "Cc1c([C@@H](C)NC(=O)c2noc(C(C)(C)C)n2)ccc(-c2ncnc(Nc3cnn(C)c3)n2)c1F",
    "pIC50": "> 9.00"
  },
  {
    "Smiles Text": "Cn1cc(Nc2ncnc(-c3ccc4c(c3)CCCC[C@H]4NC(=O)c3cnc(C(C)(C)C)o3)n2)cn1",
    "pIC50": "> 9.00"
  }
]

---

Target: BTK (Homo sapiens (Human), UniProt Q06187)
Sequence (Q06187 whole entry): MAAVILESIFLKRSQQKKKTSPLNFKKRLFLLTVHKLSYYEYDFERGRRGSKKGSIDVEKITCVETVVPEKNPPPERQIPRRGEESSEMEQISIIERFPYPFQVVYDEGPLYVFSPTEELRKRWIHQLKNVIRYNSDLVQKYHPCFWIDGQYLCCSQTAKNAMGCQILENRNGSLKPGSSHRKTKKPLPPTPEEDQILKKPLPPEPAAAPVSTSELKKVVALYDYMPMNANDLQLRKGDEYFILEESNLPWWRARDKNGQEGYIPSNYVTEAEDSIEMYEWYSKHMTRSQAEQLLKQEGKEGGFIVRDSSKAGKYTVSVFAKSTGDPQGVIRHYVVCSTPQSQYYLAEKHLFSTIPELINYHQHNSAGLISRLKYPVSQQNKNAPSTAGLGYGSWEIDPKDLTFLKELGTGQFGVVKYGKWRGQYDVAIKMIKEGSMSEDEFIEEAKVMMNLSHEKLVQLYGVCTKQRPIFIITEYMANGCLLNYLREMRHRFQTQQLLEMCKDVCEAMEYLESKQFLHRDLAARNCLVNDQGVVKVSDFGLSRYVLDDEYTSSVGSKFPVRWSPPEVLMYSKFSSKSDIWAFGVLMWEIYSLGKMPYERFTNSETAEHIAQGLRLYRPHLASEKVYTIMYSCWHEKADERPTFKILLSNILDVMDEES
Experiment: In Vitro PD Assay in Human Whole Blood (pBTK assay)
Format: cell-based
Conditions: human heparinized whole blood, 37° C. for 30 min, total BTK capture and phosphotyrosine detection (ECL)
pIC50: −log10 of the molar value.
Measurement Name: pIC50

[
  {
    "Smiles Text": "Cn1ccc(Nc2ncnc(-c3ccc4c(c3F)CCCC[C@H]4NC(=O)c3nc(C(C)(C)C)no3)n2)n1",
    "Test Result": "> 7.00"
  },
  {
    "Smiles Text": "Cc1c(CNC(=O)c2noc(C(C)(C)CF)n2)ccc(-c2ncnc(Nc3ccn(C)n3)n2)c1F",
    "Test Result": "6.30 to 7.00"
  },
  {
    "Smiles Text": "Cn1cc(Nc2ncnc(-c3ccc4c(c3)CN(CC(F)(F)F)CC[C@H]4NC(=O)c3noc(C(C)(C)C)n3)n2)cn1",
    "Test Result": "> 7.00"
  },
  {
    "Smiles Text": "C[C@@H](NC(=O)c1noc(C(C)(C)C)n1)c1ccc(-c2ncnc(Nc3ccn(C)n3)n2)c(F)c1Cl",
    "Test Result": "5.00 to 6.30"
  },
  {
    "Smiles Text": "Cn1cc(Nc2ncnc(-c3ccc4c(c3)CN(CC(F)(F)F)CC[C@H]4NC(=O)c3coc(C(C)(C)C)n3)n2)cn1",
    "Test Result": "> 7.00"
  },
  {
    "Smiles Text": "Cn1ccc(Nc2ncnc(-c3ccc(CNC(=O)c4noc(C(C)(C)C)n4)c(Cl)c3F)n2)n1",
    "Test Result": "6.30 to 7.00"
  },
  {
    "Smiles Text": "Cc1cc(-c2ncnc(Nc3cnn(C)c3)n2)ccc1CNC(=O)c1nnn(C(C)(C)C)n1",
    "Test Result": "> 7.00"
  },
  {
    "Smiles Text": "Cn1cc(Nc2ncnc(-c3ccc4c(c3)CCCC[C@H]4NC(=O)c3noc(C(C)(C)C)n3)n2)cn1",
    "Test Result": "> 7.00"
  },
  {
    "Smiles Text": "Cc1cc(-c2ncnc(Nc3cnn(C)c3)n2)ccc1CNC(=O)c1coc(C(C)(C)C)n1",
    "Test Result": "5.00 to 6.30"
  },
  {
    "Smiles Text": "Cc1c(-c2ncnc(Nc3cnn(C)c3)n2)ccc([C@@H](C)NC(=O)c2noc(C(C)(C)C)n2)c1Cl",
    "Test Result": "6.30 to 7.00"
  },
  {
    "Smiles Text": "Cc1cc(-c2ncnc(Nc3cnn(C)c3)n2)ccc1CNC(=O)c1cnn(C(C)(C)C)c1",
    "Test Result": "6.30 to 7.00"
  }
]

---

Biological target: BTK (Homo sapiens (Human), UniProt Q06187)
Assay: In Vitro PD Assay in Human Whole Blood (pBTK assay)
Type: cell-based
Conditions: human heparinized whole blood, 37° C. for 30 min, total BTK capture and phosphotyrosine detection (ECL)
pIC50: −log10 of the molar value.
Measurement Name: pIC50

[
  {
    "Smiles Text": "Cc1cc(-c2ncnc(Nc3cnn(C)c3)n2)ccc1CNC(=O)c1nc(C(C)(C)C)no1",
    "System Name": "BTK (Homo sapiens (Human), UniProt Q06187)",
    "Test Result": "6.30 to 7.00"
  },
  {
    "Smiles Text": "Cc1cc(-c2ncnc(Nc3cnn(C)c3)n2)ccc1CNC(=O)c1nc(C(C)(C)C)co1",
    "System Name": "BTK (Homo sapiens (Human), UniProt Q06187)",
    "Test Result": "5.00 to 6.30"
  },
  {
    "Smiles Text": "Cc1cc(-c2ncnc(Nc3ccn(C)n3)n2)ccc1CNC(=O)c1nc(C(C)(C)C)no1",
    "System Name": "BTK (Homo sapiens (Human), UniProt Q06187)",
    "Test Result": "5.00 to 6.30"
  },
  {
    "Smiles Text": "Cc1c(CNC(=O)c2coc(C(C)(C)C)n2)ccc(-c2ncnc(Nc3ccn(C)n3)n2)c1F",
    "System Name": "BTK (Homo sapiens (Human), UniProt Q06187)",
    "Test Result": "5.00 to 6.30"
  },
  {
    "Smiles Text": "Cc1c(CNC(=O)c2cnn(C(C)(C)C)c2)ccc(-c2ncnc(Nc3cnn(C)c3)n2)c1F",
    "System Name": "BTK (Homo sapiens (Human), UniProt Q06187)",
    "Test Result": "6.30 to 7.00"
  },
  {
    "Smiles Text": "Cc1cc(-c2ncnc(Nc3cnn(C)c3)n2)c(F)cc1CNC(=O)c1nc(C(C)(C)C)no1",
    "System Name": "BTK (Homo sapiens (Human), UniProt Q06187)",
    "Test Result": "6.30 to 7.00"
  },
  {
    "Smiles Text": "Cn1ccc(Nc2ncnc(-c3ccc4c(c3)CCCC[C@H]4NC(=O)c3noc(C(C)(C)C)n3)n2)n1",
    "System Name": "BTK (Homo sapiens (Human), UniProt Q06187)",
    "Test Result": "6.30 to 7.00"
  },
  {
    "Smiles Text": "Cc1cc(-c2ncnc(Nc3cnn(C)c3)n2)c(F)cc1CNC(=O)c1cnn(C(C)(C)C)c1",
    "System Name": "BTK (Homo sapiens (Human), UniProt Q06187)",
    "Test Result": "6.30 to 7.00"
  }
]
